Entry source: ChEMBL document CHEMBL3259552

targetDesc: E3 ubiquitin-protein ligase Mdm2 (Homo sapiens)
Sequence (Q00987 whole entry): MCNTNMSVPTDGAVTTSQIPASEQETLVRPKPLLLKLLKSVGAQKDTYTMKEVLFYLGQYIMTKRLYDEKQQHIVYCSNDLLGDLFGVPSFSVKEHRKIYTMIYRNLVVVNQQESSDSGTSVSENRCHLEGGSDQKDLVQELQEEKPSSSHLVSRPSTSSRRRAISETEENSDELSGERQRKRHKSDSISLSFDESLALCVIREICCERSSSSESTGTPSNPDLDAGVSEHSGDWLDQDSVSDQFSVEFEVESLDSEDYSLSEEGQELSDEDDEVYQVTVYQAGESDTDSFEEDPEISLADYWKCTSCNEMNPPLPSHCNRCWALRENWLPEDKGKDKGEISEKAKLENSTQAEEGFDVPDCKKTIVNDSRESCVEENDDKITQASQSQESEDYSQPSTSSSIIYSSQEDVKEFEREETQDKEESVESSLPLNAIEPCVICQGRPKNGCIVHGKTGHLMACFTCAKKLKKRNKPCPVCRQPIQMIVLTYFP
assayName: Inhibition of MDM2 (unknown origin) (2 to 188) assessed as inhibition of p53-MDM2 interaction by TR-FRET assay
quantityName: IC50

Lab note: measured IC50 of O=C(O)c1nc(-c2ccccc2)n(-c2cccc(Cl)c2)c1-c1cccc(Cl)c1 was 120 nM

###

Examples of compounds with documented IC50 follow.
Tested on: SJSA-1
assayName: Antiproliferative activity against human SJSA1 cells expressing wild-type p53 after 72 hrs by fluorescence plate reader analysis
Type: functional, cell-based
setupConditions: SJSA-1, 72 h
Lab book: enter the figure in µM, no units written.

Before answering, review these 4 worked examples.
| mol | targetDesc | unitText | measured |
| --- | --- | --- | --- |
| Cc1ccc(Cl)cc1-n1c(-c2ccccc2)nc(C(=O)O)c1-c1cccc(Cl)c1 | SJSA-1 | µM | 16.1 |
| Nc1nnc(-c2nc(C3CCCCC3)n(-c3c(CC(=O)NC4CCCCC4)ccc(Cl)c3F)c2-c2ccc(F)c(Cl)c2)o1 | SJSA-1 | µM | 1.4 |
| NC(=O)c1nc(C2CCCCC2)n(-c2cccc(Cl)c2F)c1-c1ccc(F)c(Cl)c1 | SJSA-1 | µM | 4.1 |
| Nc1nnc(-c2nc(C3CCCCC3)n(-c3c(CC(=O)Nc4ccccc4)ccc(Cl)c3F)c2-c2ccc(F)c(Cl)c2)o1 | SJSA-1 | µM | 2.5 |

Lab note: measured IC50 of Nc1nnc(-c2nc(C3CCCCC3)n(-c3cccc(Cl)c3F)c2-c2ccc(F)c(Cl)c2)o1 was 3.5

Lab note: measured IC50 of CC(C)(C)NC(=O)Cc1ccc(Cl)c(F)c1-n1c(C2CCCCC2)nc(-c2nnc(N)o2)c1-c1ccc(F)c(Cl)c1 was 0.5

Lab note: measured IC50 of O=C(O)c1nc(-c2ccccc2)n(-c2cccc(Cl)c2F)c1-c1ccc(F)c(Cl)c1 was 14

Lab note: measured IC50 of Fc1ccc(-c2c(-c3nnn[nH]3)nc(C3CCCCC3)n2-c2cccc(Cl)c2F)cc1Cl was 4.4

Lab note: measured IC50 of O=C(O)c1nc(-c2ccccc2)n(-c2cccc(Cl)c2F)c1-c1cccc(Cl)c1 was 12.2

Lab note: measured IC50 of O=C(O)c1nc(C2CCCCC2)n(-c2cccc(Cl)c2F)c1-c1ccc(F)c(Cl)c1 was 13.2

Lab note: measured IC50 of Cc1nnc(-c2nc(C3CCCCC3)n(-c3cccc(Cl)c3F)c2-c2ccc(F)c(Cl)c2)o1 was 5.9

Lab note: measured IC50 of CNC(=O)Cc1ccc(Cl)c(F)c1-n1c(C2CCCCC2)nc(-c2nnc(N)o2)c1-c1ccc(F)c(Cl)c1 was 1.4

Lab note: measured IC50 of Cc1cccc(-c2nc(C(=O)O)c(-c3cccc(Cl)c3)n2-c2cc(Cl)ccc2C)c1 was 10.2
